- TARGET_SYSTEM: α4β1 (Homo sapiens, UniProt P05556+P13612)
- Construct: Ramos Cell Adhesion Assay (α4β1 Mediated Adhesion/VCAM-1); endogenous in cells; host or cells: Ramos cells
- Sequence (P13612 34-1032): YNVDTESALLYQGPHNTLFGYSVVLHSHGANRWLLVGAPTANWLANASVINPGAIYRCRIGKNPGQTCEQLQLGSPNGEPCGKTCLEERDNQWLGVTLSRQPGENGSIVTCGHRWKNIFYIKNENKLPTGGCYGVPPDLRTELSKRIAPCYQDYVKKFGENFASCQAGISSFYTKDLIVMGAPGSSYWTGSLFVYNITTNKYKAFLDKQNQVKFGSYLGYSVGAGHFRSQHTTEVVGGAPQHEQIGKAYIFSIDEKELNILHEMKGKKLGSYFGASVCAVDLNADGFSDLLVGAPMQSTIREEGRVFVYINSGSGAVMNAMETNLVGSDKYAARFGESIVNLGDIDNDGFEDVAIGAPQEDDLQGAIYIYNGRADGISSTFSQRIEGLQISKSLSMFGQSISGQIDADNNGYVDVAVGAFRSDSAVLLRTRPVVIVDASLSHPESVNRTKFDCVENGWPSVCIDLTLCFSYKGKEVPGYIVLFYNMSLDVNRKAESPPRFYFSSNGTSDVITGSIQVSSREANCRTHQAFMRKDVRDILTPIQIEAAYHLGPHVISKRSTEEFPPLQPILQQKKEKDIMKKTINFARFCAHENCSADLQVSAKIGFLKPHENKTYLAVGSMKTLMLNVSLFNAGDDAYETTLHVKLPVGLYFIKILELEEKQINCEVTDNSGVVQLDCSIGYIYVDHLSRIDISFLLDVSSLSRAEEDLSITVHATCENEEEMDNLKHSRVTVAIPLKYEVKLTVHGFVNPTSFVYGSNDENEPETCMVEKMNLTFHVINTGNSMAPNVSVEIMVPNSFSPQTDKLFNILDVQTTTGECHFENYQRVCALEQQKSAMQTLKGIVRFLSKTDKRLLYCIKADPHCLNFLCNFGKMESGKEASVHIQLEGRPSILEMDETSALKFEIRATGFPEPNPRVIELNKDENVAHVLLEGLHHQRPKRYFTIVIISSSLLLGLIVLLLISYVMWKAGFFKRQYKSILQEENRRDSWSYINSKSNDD
- Sequence (P05556 21-798): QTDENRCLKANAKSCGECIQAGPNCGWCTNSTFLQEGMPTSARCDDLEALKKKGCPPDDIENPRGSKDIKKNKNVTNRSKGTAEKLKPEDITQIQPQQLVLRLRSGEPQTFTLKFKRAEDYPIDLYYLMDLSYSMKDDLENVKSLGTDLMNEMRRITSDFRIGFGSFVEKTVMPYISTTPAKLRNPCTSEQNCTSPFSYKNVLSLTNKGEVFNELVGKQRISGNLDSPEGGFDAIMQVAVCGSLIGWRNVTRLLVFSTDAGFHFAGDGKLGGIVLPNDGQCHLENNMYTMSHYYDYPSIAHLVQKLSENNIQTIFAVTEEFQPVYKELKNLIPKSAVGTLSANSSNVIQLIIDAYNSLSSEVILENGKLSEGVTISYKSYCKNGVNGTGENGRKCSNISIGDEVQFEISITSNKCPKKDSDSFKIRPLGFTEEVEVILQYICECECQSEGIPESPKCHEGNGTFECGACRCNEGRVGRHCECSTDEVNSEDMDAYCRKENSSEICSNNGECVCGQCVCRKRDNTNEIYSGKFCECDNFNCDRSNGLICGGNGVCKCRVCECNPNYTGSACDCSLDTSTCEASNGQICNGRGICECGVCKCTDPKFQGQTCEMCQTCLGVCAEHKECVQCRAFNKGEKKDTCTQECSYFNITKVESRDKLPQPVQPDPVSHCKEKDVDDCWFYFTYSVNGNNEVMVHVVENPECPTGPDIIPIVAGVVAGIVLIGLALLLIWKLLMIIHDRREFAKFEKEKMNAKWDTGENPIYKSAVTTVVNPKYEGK
- METHOD_NOTES: Ramos Cell Adhesion Assay (α4β1 Mediated Adhesion/VCAM-1)
- Type: cell-based
- DETAILS: Ramos cell adhesion to hVCAM-1; read-out: α4β1 IC50
pIC50: −log10 of the molar value.
OBSERVATION_TYPE: pIC50

Sample answers from the record:
In [3]: df
Out[3]:
                                   compound                             target_system  observation_type  result
0  COc1cnn(C)c(=O)c1-c1ccc(C[C@H](NC(=O)c2c(C)cc(C)nc2N)C(=O)O)cc1  α4β1 (Homo sapiens, UniProt P05556+P13612)             pIC50    6.29
1  COc1cnn(CC(=O)O)c(=O)c1-c1ccc(C[C@H](NC(=O)c2c(Cl)cccc2Cl)C(=O)O)cc1  α4β1 (Homo sapiens, UniProt P05556+P13612)             pIC50    6.07
2  COc1cnn(C)c(=O)c1-c1ccc(C[C@H](NC(=O)[C@H](NC(=O)OC(C)(C)C)C(C)C)C(=O)O)cc1  α4β1 (Homo sapiens, UniProt P05556+P13612)             pIC50    6.01
3  COc1cnn(C)c(=O)c1-c1ccc(C[C@H](NC(=O)C2(C(=O)OC(C)(C)C)CCOCC2)C(=O)O)cc1  α4β1 (Homo sapiens, UniProt P05556+P13612)             pIC50    5.82
4  COc1cnn(C)c(=O)c1-c1ccc(CC(NC(=O)C(C(C)C)n2cccc2)C(=O)O)cc1 (stereo not drawn)  α4β1 (Homo sapiens, UniProt P05556+P13612)             pIC50    6.56

P. CNC(C(=O)NC(Cc1ccc(-c2c(OC)cnn(C)c2=O)cc1)C(=O)O)C(C)C (single isomer, unassigned) [Cpd 54]
Q. COc1cnn(C)c(=O)c1-c1ccc(C[C@H](NC(=O)C2(NC(C)C)CC2)C(=O)O)cc1 [Cpd 146]
R. Cn1ncc(O)c(-c2ccc(C[C@H](NC(=O)c3c(Cl)cccc3Cl)C(=O)O)cc2)c1=O
S. COc1cnn(CCO)c(=O)c1-c1ccc(C[C@H](NC(=O)c2c(Cl)cccc2Cl)C(=O)O)cc1
Rank by pIC50 (largest to smallest). Answer by naming the labels in the order asked. S, Q, R, P

a. COc1cnn(C)c(=O)c1-c1ccc(CC(NC(=O)C(C(C)C)n2c(C)ccc2C)C(=O)O)cc1 (stereo not drawn) [Cpd 213]
b. Cn1ncc(OC2CCCC2)c(-c2ccc(C[C@H](NC(=O)c3c(Cl)cccc3Cl)C(=O)O)cc2)c1=O
c. COc1cnn(C)c(=O)c1-c1ccc(CC(NC(=O)C(NC(=O)Cc2ccsc2)C(C)C)C(=O)O)cc1 (stereo not drawn)
Rank by pIC50 (largest to smallest). Answer by naming the labels in the order asked. b, c, a
(b: 6.81, c: 6.51, a: 5.54)
